Test: mn = molality of the nth substance listed, in mol/kg
Details: 298.15 K; 101 kPa; Liquid; Alternating current cell with electrodes; m1 = 0.15

{"MOLECULE": "NCC(=O)NCC(=O)O [glycylglycine] + O", "electrical conductivity / S/m": 0.00818}
{"MOLECULE": "NCC(=O)N[C@@H](CCC(N)=O)C(=O)O [glycyl-l-glutamine] + O", "electrical conductivity / S/m": 0.00832}
{"MOLECULE": "CC(C)C[C@H](NC(=O)CN)C(=O)O [glycyl-L-leucine] + O", "electrical conductivity / S/m": 0.00809}
{"MOLECULE": "C[C@H](N)C(=O)N[C@@H](CCC(N)=O)C(=O)O [L-alanyl-L-glutamine] + O", "electrical conductivity / S/m": 0.0084}
{"MOLECULE": "CC(C)[C@H](NC(=O)CN)C(=O)O [glycyl-L-valine] + O", "electrical conductivity / S/m": 0.00811}

====

electrical conductivity values for the compounds below.
Experiment: mn = molality of the nth substance listed, in mol/kg
Conditions: 303.15 K; 101 kPa; Liquid; Alternating current cell with electrodes; m1 = 0.1
READOUT_LABEL: electrical conductivity

{"COMPOUND": "CC(C)[C@H](NC(=O)CN)C(=O)O [glycyl-L-valine] + O", "REPORTED": "0.00636 S/m"}
{"COMPOUND": "C[C@H](N)C(=O)N[C@@H](CCC(N)=O)C(=O)O [L-alanyl-L-glutamine] + O", "REPORTED": "0.00648 S/m"}
{"COMPOUND": "CC(C)C[C@H](NC(=O)CN)C(=O)O [glycyl-L-leucine] + O", "REPORTED": "0.00634 S/m"}
{"COMPOUND": "NCC(=O)NCC(=O)O [glycylglycine] + O", "REPORTED": "0.00652 S/m"}
{"COMPOUND": "NCC(=O)N[C@@H](CCC(N)=O)C(=O)O [glycyl-l-glutamine] + O", "REPORTED": "0.00649 S/m"}

====

Experiment: mn = molality of the nth substance listed, in mol/kg
Conditions: 313.15 K; 101 kPa; Liquid; Alternating current cell with electrodes; m1 = 0.1
READOUT_LABEL: electrical conductivity (S/m)

{"COMPOUND": "C[C@H](N)C(=O)N[C@@H](CCC(N)=O)C(=O)O [L-alanyl-L-glutamine] + O", "REPORTED": 0.00792}
{"COMPOUND": "CC(C)C[C@H](NC(=O)CN)C(=O)O [glycyl-L-leucine] + O", "REPORTED": 0.00781}
{"COMPOUND": "CC(C)[C@H](NC(=O)CN)C(=O)O [glycyl-L-valine] + O", "REPORTED": 0.00783}
{"COMPOUND": "NCC(=O)NCC(=O)O [glycylglycine] + O", "REPORTED": 0.00805}

====

electrical conductivity values for the compounds below.
Test: mn = molality of the nth substance listed, in mol/kg
Conditions: 298.15 K; 101 kPa; Liquid; Alternating current cell with electrodes; m1 = 0.1
READOUT_LABEL: electrical conductivity (S/m)

{"COMPOUND": "CC(C)C[C@H](NC(=O)CN)C(=O)O [glycyl-L-leucine] + O", "REPORTED": 0.0058}
{"COMPOUND": "CC(C)[C@H](NC(=O)CN)C(=O)O [glycyl-L-valine] + O", "REPORTED": 0.00582}
{"COMPOUND": "NCC(=O)N[C@@H](CCC(N)=O)C(=O)O [glycyl-l-glutamine] + O", "REPORTED": 0.006}

====

electrical conductivity values for the compounds below.
Assay: mn = molality of the nth substance listed, in mol/kg
Conditions: 293.15 K; 101 kPa; Liquid; Alternating current cell with electrodes; m1 = 0.1

{"COMPOUND": "NCC(=O)N[C@@H](CCC(N)=O)C(=O)O [glycyl-l-glutamine] + O", "electrical conductivity, S/m": 0.00556}
{"COMPOUND": "C[C@H](N)C(=O)N[C@@H](CCC(N)=O)C(=O)O [L-alanyl-L-glutamine] + O", "electrical conductivity, S/m": 0.00555}
{"COMPOUND": "CC(C)[C@H](NC(=O)CN)C(=O)O [glycyl-L-valine] + O", "electrical conductivity, S/m": 0.00535}
